# Assayed System: Bcl-2 (Homo sapiens)
# Sequence (P10415 1-218 limits assumed): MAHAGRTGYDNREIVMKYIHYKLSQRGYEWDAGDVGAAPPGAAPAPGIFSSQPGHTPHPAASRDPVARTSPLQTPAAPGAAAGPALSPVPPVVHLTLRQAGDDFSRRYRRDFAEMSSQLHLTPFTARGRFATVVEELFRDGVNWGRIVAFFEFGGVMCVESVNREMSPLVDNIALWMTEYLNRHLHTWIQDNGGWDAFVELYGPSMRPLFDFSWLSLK
Readout Label: pIC50
// field semantics: pIC50 = negative decimal log of concentration (mol/L)

Value lookup for pIC50; key = CC(C)C(C(=O)O)N1C(=O)/C(=C/c2ccc(Br)cc2)SC1=S (stereo not shown) [BH3I-1, reference compound]
5.94

* * *

# Assayed System: Bfl-1 (Homo sapiens, UniProt Q16548)
# Construct: lacking their C-terminal transmembrane domains (approximately last 20 amino-acids); made in house; host or cells: XL-1 Blue cells (E. coli), pGEX 4T-1
# Sequence (Q16548 1-155 limits assumed): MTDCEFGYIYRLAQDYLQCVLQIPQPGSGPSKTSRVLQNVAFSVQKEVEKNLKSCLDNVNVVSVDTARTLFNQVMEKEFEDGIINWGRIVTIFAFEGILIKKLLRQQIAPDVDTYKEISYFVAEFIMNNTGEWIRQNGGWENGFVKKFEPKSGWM
# Test Description: Bfl-1 fluorescence polarization assay (FPA/FP), competition with FITC-Bid BH3 peptide
# Assay type: binding
# Details: Tables 3-5; read-out: Bfl-1 FP IC50
Please go through the items and note down their IC50.
Return type: number; implicit unit nM.

Value lookup for IC50; key = `CCN1CCN(C2=C(Cl)C(=O)N(c3ccc(Cl)c(Cl)c3)C2=O)CC1`
1670

Could you do the same for `COCCNC1=C(Cl)C(=O)N(c2ccc(Cl)c(Cl)c2)C1=O` , please?
12600

Could you do the same for `CN1CCN(C2=C(Cl)C(=O)N(c3c(Cl)cccc3Cl)C2=O)CC1` , please?
13700

Could you do the same for `O=C1C(Cl)=C(N2CCN(Cc3ccccc3)CC2)C(=O)N1c1ccc(Cl)c(Cl)c1` , please?
1620

Could you do the same for `CN1CCN(C2=C(Cl)C(=O)N(c3ccccc3Cl)C2=O)CC1` , please?
2160
